# System: Klebsiella oxytoca
# Assay overview: Activity of Klebsiella oxytoca Beta-lactamase K1
// kcat lookup, one value per entry

{"Smiles data": "C[C@@H](O)[C@H]1C(=O)N2C(C(=O)O)=C(SCCNC=N)C[C@H]12", "kcat": "0.091 s⁻¹"}
{"Smiles data": "CC1(C)S[C@@H]2[C@H](NC(=O)Cc3ccccc3)C(=O)N2[C@H]1C(=O)O", "kcat": "800 s⁻¹"}
{"Smiles data": "CC(C)(O/N=C(\\C(=O)N[C@@H]1C(=O)N2C(C(=O)[O-])=C(C[n+]3ccccc3)CS[C@H]12)c1csc(N)n1)C(=O)O", "kcat": "0.013 s⁻¹"}

## Task Could you please provide reported kcat for C[C@@H](O)[C@H]1C(=O)N2C(C(=O)O)=C(S[C@@H]3CN[C@H](C(=O)N(C)C)C3)[C@H](C)[C@H]12 ? Thanks!
## Result 0.0096 s⁻¹

## Task Could you please provide reported kcat for C[C@@H](O)[C@H]1C(=O)N2C(C(=O)O)=C(S[C@@H]3CN[C@H](CNS(N)(=O)=O)C3)[C@H](C)[C@H]12 ? Thanks!
## Result 0.0068 s⁻¹

## Task Could you please provide reported kcat for O=C(Cc1cccs1)N[C@@H]1C(=O)N2C(C(=O)[O-])=C(C[n+]3ccccc3)CS[C@H]12 ? Thanks!
## Result 490 s⁻¹

* * *

// Km lookup, one value per entry
# System: Klebsiella pneumoniae
# Assay overview: Activity of Klebsiella pneumoniae Beta-lactamase TEM-26
Report as a plain number; the unit µM is understood.

See these solved cases before continuing.
{"Smiles data": "O=C(Cc1cccs1)N[C@@H]1C(=O)N2C(C(=O)[O-])=C(C[n+]3ccccc3)CS[C@H]12", "Km (µM)": 66}
{"Smiles data": "CC(C)(O/N=C(\\C(=O)N[C@@H]1C(=O)N2C(C(=O)[O-])=C(C[n+]3ccccc3)CS[C@H]12)c1csc(N)n1)C(=O)O", "Km (µM)": 130}
{"Smiles data": "C[C@@H](O)[C@H]1C(=O)N2C(C(=O)O)=C(S[C@@H]3CN[C@H](C(=O)N(C)C)C3)[C@H](C)[C@H]12", "Km (µM)": 8.8}
{"Smiles data": "C[C@@H](O)[C@H]1C(=O)N2C(C(=O)O)=C(SCCNC=N)C[C@H]12", "Km (µM)": 14}

## Task Could you please provide reported Km for CC1(C)S[C@@H]2[C@H](NC(=O)Cc3ccccc3)C(=O)N2[C@H]1C(=O)O ? Thanks!
## Result 5

## Task Could you please provide reported Km for C[C@@H](O)[C@H]1C(=O)N2C(C(=O)O)=C(S[C@@H]3CN[C@H](CNS(N)(=O)=O)C3)[C@H](C)[C@H]12 ? Thanks!
## Result 8

* * *

# Tested on: Escherichia coli
# Assay overview: Kcat/Km ratio of Klebsiella pneumoniae Beta-lactamase TEM-26
// kcat/Km lookup, one value per entry

See these solved cases before continuing.
{"Smiles data": "CC(C)(O/N=C(\\C(=O)N[C@@H]1C(=O)N2C(C(=O)[O-])=C(C[n+]3ccccc3)CS[C@H]12)c1csc(N)n1)C(=O)O", "kcat/Km": "730000 M⁻¹ s⁻¹"}
{"Smiles data": "C[C@@H](O)[C@H]1C(=O)N2C(C(=O)O)=C(S[C@@H]3CN[C@H](CNS(N)(=O)=O)C3)[C@H](C)[C@H]12", "kcat/Km": "46 M⁻¹ s⁻¹"}
{"Smiles data": "O=C(Cc1cccs1)N[C@@H]1C(=O)N2C(C(=O)[O-])=C(C[n+]3ccccc3)CS[C@H]12", "kcat/Km": "560000 M⁻¹ s⁻¹"}

## Task Could you please provide reported kcat/Km for C[C@@H](O)[C@H]1C(=O)N2C(C(=O)O)=C(SCCNC=N)C[C@H]12 ? Thanks!
## Result 170 M⁻¹ s⁻¹

## Task Could you please provide reported kcat/Km for CC1(C)S[C@@H]2[C@H](NC(=O)Cc3ccccc3)C(=O)N2[C@H]1C(=O)O ? Thanks!
## Result 1.5e+07 M⁻¹ s⁻¹

## Task Could you please provide reported kcat/Km for C[C@@H](O)[C@H]1C(=O)N2C(C(=O)O)=C(S[C@@H]3CN[C@H](C(=O)N(C)C)C3)[C@H](C)[C@H]12 ? Thanks!
## Result 44 M⁻¹ s⁻¹

* * *

# System: Klebsiella oxytoca
# Assay overview: Kcat/Km ratio of Klebsiella oxytoca Beta-lactamase K1 relative to Cephaloridine
// boundary case: Activity equal to 0.04% maps to 0.0; strictly smaller maps to 1.0

These recorded examples may help you get a feel for the data.
{"Smiles data": "CC1(C)S[C@@H]2[C@H](NC(=O)Cc3ccccc3)C(=O)N2[C@H]1C(=O)O", "Qualitative label": 0.0}
{"Smiles data": "C[C@@H](O)[C@H]1C(=O)N2C(C(=O)O)=C(S[C@@H]3CN[C@H](C(=O)N(C)C)C3)[C@H](C)[C@H]12", "Qualitative label": 1.0}
{"Smiles data": "C[C@@H](O)[C@H]1C(=O)N2C(C(=O)O)=C(S[C@@H]3CN[C@H](CNS(N)(=O)=O)C3)[C@H](C)[C@H]12", "Qualitative label": 1.0}

Please turn your attention to the following entry.
## Task Hi there! Is Activity for CC(C)(O/N=C(\C(=O)N[C@@H]1C(=O)N2C(C(=O)[O-])=C(C[n+]3ccccc3)CS[C@H]12)c1csc(N)n1)C(=O)O below 0.04%, do you know?
## Result 1.0

* * *

# Target desc: Beta-lactamase SHV-1 (Klebsiella pneumoniae) (UniProt P0AD64)
# Sequence (P0AD64 whole entry): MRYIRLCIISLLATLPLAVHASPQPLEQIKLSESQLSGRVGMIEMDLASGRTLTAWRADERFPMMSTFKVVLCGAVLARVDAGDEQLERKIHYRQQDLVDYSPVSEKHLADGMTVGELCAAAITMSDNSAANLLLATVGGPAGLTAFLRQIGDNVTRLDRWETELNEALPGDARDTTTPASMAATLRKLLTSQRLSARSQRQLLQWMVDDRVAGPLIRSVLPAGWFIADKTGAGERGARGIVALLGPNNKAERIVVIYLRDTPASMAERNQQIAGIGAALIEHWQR
# Assay overview: Activity of Klebsiella pneumoniae SHV-1 relative to Cephaloridine
Value type: Activity (%)
Report as a plain number; the unit % is understood.

{"Smiles data": "C[C@@H](O)[C@H]1C(=O)N2C(C(=O)O)=C(S[C@@H]3CN[C@H](CNS(N)(=O)=O)C3)[C@H](C)[C@H]12", "Target desc": "Beta-lactamase SHV-1 (Klebsiella pneumoniae) (UniProt P0AD64)", "Units of measure": "%", "Activity": 0.00073}

## Task Could you please provide reported Activity for C[C@@H](O)[C@H]1C(=O)N2C(C(=O)O)=C(S[C@@H]3CN[C@H](C(=O)N(C)C)C3)[C@H](C)[C@H]12 ? Thanks!
## Result 0.00041

## Task Could you please provide reported Activity for C[C@@H](O)[C@H]1C(=O)N2C(C(=O)O)=C(SCCNC=N)C[C@H]12 ? Thanks!
## Result 0.013

## Task Could you please provide reported Activity for CC(C)(O/N=C(\C(=O)N[C@@H]1C(=O)N2C(C(=O)[O-])=C(C[n+]3ccccc3)CS[C@H]12)c1csc(N)n1)C(=O)O ? Thanks!
## Result 0.0024

* * *

# Test system: Escherichia coli
# Assay overview: Activity of Klebsiella pneumoniae Beta-lactamase TEM-26 relative to Cephaloridine
Value type: Activity (%)
Report as a plain number; the unit % is understood.

{"Smiles data": "CC1(C)S[C@@H]2[C@H](NC(=O)Cc3ccccc3)C(=O)N2[C@H]1C(=O)O", "Units of measure": "%", "Activity": 210}

## Task Could you please provide reported Activity for C[C@@H](O)[C@H]1C(=O)N2C(C(=O)O)=C(S[C@@H]3CN[C@H](C(=O)N(C)C)C3)[C@H](C)[C@H]12 ? Thanks!
## Result 0.0011

## Task Could you please provide reported Activity for C[C@@H](O)[C@H]1C(=O)N2C(C(=O)O)=C(S[C@@H]3CN[C@H](CNS(N)(=O)=O)C3)[C@H](C)[C@H]12 ? Thanks!
## Result 0.001

## Task Could you please provide reported Activity for C[C@@H](O)[C@H]1C(=O)N2C(C(=O)O)=C(SCCNC=N)C[C@H]12 ? Thanks!
## Result 0.0065

## Task Could you please provide reported Activity for CC(C)(O/N=C(\C(=O)N[C@@H]1C(=O)N2C(C(=O)[O-])=C(C[n+]3ccccc3)CS[C@H]12)c1csc(N)n1)C(=O)O ? Thanks!
## Result 260

* * *

# Target desc: Carbapenem-hydrolyzing beta-lactamase KPC (Klebsiella pneumoniae)
# Assay overview: Activity of Klebsiella pneumoniae KPC-2 relative to Cephaloridine
// Activity lookup, one value per entry
Report as a plain number; the unit % is understood.

{"Smiles data": "CC1(C)S[C@@H]2[C@H](NC(=O)Cc3ccccc3)C(=O)N2[C@H]1C(=O)O", "Measured result": 15}
{"Smiles data": "CC(C)(O/N=C(\\C(=O)N[C@@H]1C(=O)N2C(C(=O)[O-])=C(C[n+]3ccccc3)CS[C@H]12)c1csc(N)n1)C(=O)O", "Measured result": 0.097}
{"Smiles data": "C[C@@H](O)[C@H]1C(=O)N2C(C(=O)O)=C(SCCNC=N)C[C@H]12", "Measured result": 7.9}

Now for another entry.
## Task Could you please provide reported Activity for C[C@@H](O)[C@H]1C(=O)N2C(C(=O)O)=C(S[C@@H]3CN[C@H](C(=O)N(C)C)C3)[C@H](C)[C@H]12 ? Thanks!
## Result 0.92
